# System: L. acidophilus NCFM
# experimental-protocol: RNA-seq transcriptional analysis of L. acidophilus NCFM growing on plant glycosides
# Format: cell-based, Lactobacillus acidophilus
# condition-notes: LBA0672 Putative phosphate starvation inducible protein stress related, COG J
recorded-endpoint: Log2 differential normalized TPM ratio compared to glucose
Please state the value as a number alone, without comment.

Examples with answers:
given-smiles	test-result
OC[C@H]1O[C@@H](O[C@H]2[C@H](O)[C@@H](O)[C@@H](O)O[C@@H]2CO)[C@H](O)[C@@H](O)[C@H]1O	0.8
OCc1ccccc1O[C@@H]1O[C@H](CO)[C@@H](O)[C@H](O)[C@H]1O	1.1
O=c1ccc2cc(O[C@@H]3O[C@H](CO)[C@@H](O)[C@H](O)[C@H]3O)c(O)cc2o1	1.8

Let's switch to this molecule now.
Q: // query Log2 differential normalized TPM ratio compared to glucose value for entry N#C[C@H](O[C@@H]1O[C@H](CO[C@@H]2O[C@H](CO)[C@@H](O)[C@H](O)[C@H]2O)[C@@H](O)[C@H](O)[C@H]1O)c1ccccc1
Ans: 2.7

###

Listed here are compounds together with their documented Transcripts per million (rpm).
# Tested on: L. acidophilus NCFM
# experimental-protocol: RNA-seq transcriptional analysis of L. acidophilus NCFM growing on plant glycosides
# Format: cell-based, Lactobacillus acidophilus
# condition-notes: LBA1458 Galactose-1-phosphate uridylyltransferase, COG G
Write the value in rpm as a bare number.

compound	recorded-endpoint	test-result
OC[C@H]1O[C@@H](O[C@H]2[C@H](O)[C@@H](O)[C@@H](O)O[C@@H]2CO)[C@H](O)[C@@H](O)[C@H]1O [Lac]	Transcripts per million (rpm)	679.9

Q: // query Transcripts per million (rpm) value for entry OCc1ccccc1O[C@@H]1O[C@H](CO)[C@@H](O)[C@H](O)[C@H]1O [Salicin]
Ans: 48.4

Q: Likewise for O=c1ccc2cc(O[C@@H]3O[C@H](CO)[C@@H](O)[C@H](O)[C@H]3O)c(O)cc2o1 [Esculin] ?
Ans: 144

Q: Likewise for N#C[C@H](O[C@@H]1O[C@H](CO[C@@H]2O[C@H](CO)[C@@H](O)[C@H](O)[C@H]2O)[C@@H](O)[C@H](O)[C@H]1O)c1ccccc1 [Amygdalin] ?
Ans: 74

###

Listed here are compounds together with their documented Log2 differential normalized TPM ratio compared to glucose.
# System: L. acidophilus NCFM
# experimental-protocol: RNA-seq transcriptional analysis of L. acidophilus NCFM growing on plant glycosides
# Assay type: cell-based, Lactobacillus acidophilus
# condition-notes: gene LBA0605 (Putative hydrolase)
Please state the value as a number alone, without comment.

Examples with answers:
given-smiles	test-result
N#C[C@H](O[C@@H]1O[C@H](CO[C@@H]2O[C@H](CO)[C@@H](O)[C@H](O)[C@H]2O)[C@@H](O)[C@H](O)[C@H]1O)c1ccccc1	3.6
OC[C@H]1O[C@@H](O[C@H]2[C@H](O)[C@@H](O)[C@@H](O)O[C@@H]2CO)[C@H](O)[C@@H](O)[C@H]1O	1
O=c1ccc2cc(O[C@@H]3O[C@H](CO)[C@@H](O)[C@H](O)[C@H]3O)c(O)cc2o1	2.4

Let's switch to this compound now.
Q: // query Log2 differential normalized TPM ratio compared to glucose value for entry OCc1ccccc1O[C@@H]1O[C@H](CO)[C@@H](O)[C@H](O)[C@H]1O
Ans: 1.2

// data source = patent US20200222474A1
